Target: T1, human C1s (human, UniProt P09871 16-688)
T1 construct: Analyte in the Biacore assays; also called hC1s; serum-derived human C1s (CompTech)
T1 sequence: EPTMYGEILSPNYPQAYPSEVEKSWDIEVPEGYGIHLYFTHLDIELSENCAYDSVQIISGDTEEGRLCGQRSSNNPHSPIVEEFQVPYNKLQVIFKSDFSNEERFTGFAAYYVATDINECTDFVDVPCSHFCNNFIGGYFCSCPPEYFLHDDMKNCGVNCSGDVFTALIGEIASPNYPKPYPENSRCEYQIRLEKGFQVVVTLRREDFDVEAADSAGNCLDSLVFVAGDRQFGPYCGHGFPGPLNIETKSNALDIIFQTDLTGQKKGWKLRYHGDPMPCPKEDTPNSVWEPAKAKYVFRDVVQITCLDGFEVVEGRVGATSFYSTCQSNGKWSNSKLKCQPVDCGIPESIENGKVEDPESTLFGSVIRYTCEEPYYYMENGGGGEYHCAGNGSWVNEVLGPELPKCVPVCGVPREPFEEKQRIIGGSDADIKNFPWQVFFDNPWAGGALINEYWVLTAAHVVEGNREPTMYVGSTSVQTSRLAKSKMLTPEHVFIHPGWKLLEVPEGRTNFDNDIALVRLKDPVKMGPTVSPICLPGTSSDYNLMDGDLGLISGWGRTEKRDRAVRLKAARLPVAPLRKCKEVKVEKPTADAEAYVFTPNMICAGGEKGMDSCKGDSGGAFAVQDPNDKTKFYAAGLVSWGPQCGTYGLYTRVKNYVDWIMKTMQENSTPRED
Assay: SPR; KD at pH 5.8 (1.2 mM Ca) over KD at pH 7.4 (1.2 mM Ca)
observed.property: KD 5(+)/7(+)
Respond numerically, and do not add a unit to the figure.

Observe how each entry below is paired with its result.
1. C1_IPN92H0033-SG4GK/IPN93L0072-SK1 (antibody, human IgG4 S228P, kappa, name in Kabat numbering, V domains shown, VL substitutions from IPN009VK3, Kabat numbering; also called IPN92H0033/IPN93L0072) VH: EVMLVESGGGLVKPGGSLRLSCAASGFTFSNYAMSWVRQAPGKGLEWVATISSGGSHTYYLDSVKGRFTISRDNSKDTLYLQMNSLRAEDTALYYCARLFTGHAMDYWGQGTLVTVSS VL: QIVLTQSPATLSLSPGERATLSCTASSSVKSSYLHWYQQKPGKAPKLWIYSTSNLASGVPSRFSGSGSGTDYTLTISSLQPEDFATYYCHQYYRLHPITFGQGTKLEIKR    6.7
2. C1_IPN92H0033-SG4GK/IPN93L0090-SK1 (antibody, human IgG4 S228P, kappa, name in Kabat numbering, V domains shown, VL substitutions from IPN009VK3, Kabat numbering; also called IPN92H0033/IPN93L0090) VH: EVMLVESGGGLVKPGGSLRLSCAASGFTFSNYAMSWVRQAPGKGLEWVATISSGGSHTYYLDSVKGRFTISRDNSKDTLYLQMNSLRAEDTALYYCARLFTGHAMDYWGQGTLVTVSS VL: QIVLTQSPATLSLSPGERATLSCTASSSVSSSKLHWYQQKPGKAPKLWIYSTSNLASGVPSRFSGSGSGTDYTLTISSLQPEDFATYYCHQYYRLHPITFGQGTKLEIKR    6.8

Consider the additional binder presented here.
input: Can you share its KD 5(+)/7(+)? I mean this binder: C1_IPN92H0144-SG4GK/IPN93L0024-SK1 (antibody, human IgG4 S228P, kappa, name in Kabat numbering, V domains shown, Substitutions from IPN009VH2, Kabat numbering; also called IPN92H0144/IPN93L0024) VH: EVMLVESGGGLVKPGGSLRLSCAASGFTFSNYAMSWVRQAPGKGLEWVATISSGGSKTYYLDSVKGRFTISRDNSKDTLYLQMNSLRAEDTALYYCARLFTGHAMDYWGQGTLVTVSS VL: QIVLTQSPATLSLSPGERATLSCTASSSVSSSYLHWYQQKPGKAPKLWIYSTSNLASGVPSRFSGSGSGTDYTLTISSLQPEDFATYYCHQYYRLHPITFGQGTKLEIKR
output: 6.4

Origin of measurements: patent US20210032365A1
